// data source = the supplement of paper PMC8671470

Listed below: area under dose-response curve values for each entry.
system: myeloid leukemia patient primary cells Pat.1; assay: area under dose-response curve (viability, 1 nM-10 uM) (fraction (0-1)); higher = more sensitive; settings: 72 h
Give the figure by itself; no unit, no explanation.

[
  {
    "molecule smiles": "CO[C@H]1C[C@@H]2CC[C@@H](C)[C@@](O)(O2)C(=O)C(=O)N2CCCC[C@H]2C(=O)O[C@H]([C@H](C)C[C@@H]2CC[C@@H](OCCO)[C@H](OC)C2)CC(=O)[C@H](C)/C=C(\\C)[C@@H](O)[C@@H](OC)C(=O)[C@H](C)C[C@H](C)/C=C/C=C/C=C/1C",
    "measurement type": "area under dose-response curve",
    "reported result": 0.122
  },
  {
    "molecule smiles": "O=C1C(SCCO)=C(SCCO)C(=O)c2ccccc21",
    "measurement type": "area under dose-response curve",
    "reported result": 0.378
  },
  {
    "molecule smiles": "CS(=O)(=O)N1CCN(Cc2cc3nc(-c4cccc5[nH]ncc45)nc(N4CCOCC4)c3s2)CC1",
    "measurement type": "area under dose-response curve",
    "reported result": 0.538
  },
  {
    "molecule smiles": "Cc1cc2c(C(C)C)c(O)c(O)c(C=O)c2c(O)c1-c1c(C)cc2c(C(C)C)c(O)c(O)c(C=O)c2c1O",
    "measurement type": "area under dose-response curve",
    "reported result": 0.135
  },
  {
    "molecule smiles": "O=C(O)CC[N+](=O)[O-]",
    "measurement type": "area under dose-response curve",
    "reported result": 0.0529
  }
]

Now let's try a different one.
Request the reported area under dose-response curve associated with CC(=O)Nc1nc(C)c(-c2ccc(Cl)c(S(=O)(=O)NCCO)c2)s1
0.365
